Give chromatographic logP for every item shown.
settings: pH 2.7, LogP, HPLC on reversed phase columns, pH 2.7, 0.1% formic acid in water / acetonitrile gradient
The answer should be written as a number, with no unit following it.

-- ask Can you share its chromatographic logP? I mean this compound: COc1ccc(CC(=O)Nc2cccc(CON=C(c3ccccc3)c3nc(=O)on3C)n2)cc1
-- reply 2.92

-- ask Return reported chromatographic logP; argument: Cc1cccc(C(=NOCc2cccc(NC(=O)CCc3ccccc3)n2)c2nc(=O)on2C)c1
-- reply 3.48

-- ask Look up chromatographic logP: Cn1oc(=O)nc1C(=NOCc1cccc(NC(=O)OC2CCCCC2)n1)c1cccc(F)c1
-- reply 3.92

-- ask # chromatographic logP lookup, item Cc1cccc(C(=O)Nc2cccc(CON=C(c3cccc(F)c3)c3nc(=O)o[nH]3)n2)c1
-- reply 3.35

###

Give chromatographic logP for every item shown.
conditions: pH 2.7, LogP, HPLC on reversed phase columns, pH 2.7, 0.1% formic acid in water / acetonitrile gradient
Please give only the number in your answer, with no unit.

-- ask Need chromatographic logP, item COc1cccc(C(=NOCc2cccc(NC(=O)OC3CCCCC3)n2)c2nc(=O)on2C)c1
-- reply 3.85

-- ask Given the molecule Cc1cccc(C(=NOCc2cccc(NC(=O)CC(C)C)n2)c2nc(=O)on2C)c1 , what is its reported chromatographic logP?
-- reply 3.13

-- ask Value lookup for chromatographic logP; key = C#CCCOC(=O)Nc1cccc(CON=C(c2cccc(F)c2)c2nc(=O)o[nH]2)n1
-- reply 2.8

-- ask # chromatographic logP lookup, item COc1ccc(CC(=O)Nc2cccc(CON=C(c3cccc(OC)c3)c3nc(=O)o[nH]3)n2)cc1
-- reply 2.98

-- ask For Cn1oc(=O)nc1C(=NOCc1cccc(NC(=O)OCCC2CCCC2)n1)c1ccccc1 , what is its reported chromatographic logP?
-- reply 4.26

-- ask Given COc1cccc(C(=NOCc2cccc(NC(=O)c3cccc(C)c3)n2)c2nc(=O)o[nH]2)c1 , state its recorded chromatographic logP.
-- reply 3.31

-- ask Would you kindly share the measured chromatographic logP for O=C(CCc1ccccc1)Nc1cccc(CON=C(c2cccc(F)c2)c2nc(=O)o[nH]2)n1 ?
-- reply 3.29

-- ask Fill in: chromatographic logP of Cn1oc(=O)nc1/C(=N\OCc1cccc(Br)n1)c1ccccc1 is ___
-- reply 2.75

-- ask Requested field: chromatographic logP. Item: COc1cccc(C(=NOCc2cccc(NC(=O)C(C)Oc3ccccc3)n2)c2nc(=O)o[nH]2)c1 (centres unmarked)
-- reply 3.39

-- ask Field request: chromatographic logP | item: CCCCC(=O)Nc1cccc(CON=C(c2ccccc2)c2nc(=O)on2C)n1
-- reply 2.9

-- ask Dear colleague, I am looking for the recorded chromatographic logP of the following molecule: COc1cccc(C(=O)Nc2cccc(CON=C(c3cccc(C)c3)c3nc(=O)on3C)n2)c1
-- reply 3.31

###

Hi there, I'd appreciate the recorded chromatographic logP for every entry that follows.
conditions: pH 2.7, LogP, HPLC on reversed phase columns, pH 2.7, 0.1% formic acid in water / acetonitrile gradient
// no unit, no text: just the number

-- ask // chromatographic logP lookup, key: CCCCCC(=O)Nc1cccc(CON=C(c2cccc(OC)c2)c2nc(=O)o[nH]2)n1
-- reply 3.31

-- ask chromatographic logP for Cn1oc(=O)nc1C(=NOCc1cccc(NC(=O)CCC2CCCCC2)n1)c1ccccc1 ?
-- reply 4.06

-- ask # get_value(readout='chromatographic logP', item= C/C=C/CCCOC(=O)Nc1cccc(CON=C(c2ccccc2)c2nc(=O)on2C)n1 )
-- reply 3.81

-- ask Can you share its chromatographic logP? I mean this molecule: Cn1oc(=O)nc1/C(=N\OCc1cccc(NCCC2CCCCC2)n1)c1ccccc1
-- reply 2.43

-- ask Any idea what chromatographic logP was measured for CCCCCC(=O)Nc1cccc(CON=C(c2ccccc2)c2nc(=O)on2CCOC)n1 ?
-- reply 3.5

-- ask Recorded chromatographic logP for CC#CCOC(=O)Nc1cccc(CON=C(c2cccc(F)c2)c2nc(=O)o[nH]2)n1 , please?
-- reply 2.94

-- ask Reported chromatographic logP, molecule C#CCCCCOC(=O)Nc1cccc(CON=C(c2ccccc2)c2nc(=O)on2C)n1 : ____
-- reply 3.21

-- ask What value of measured chromatographic logP is listed for Cn1oc(=O)nc1/C(=N\OCc1cccc(NC(=O)OC(C)(C)C)n1)c1ccccc1 ?
-- reply 3.31

Reference source for all entries: patent US9556158B2
